# System: IP3 -C6 -NC5 -BSA induced antibodies (anti-Ins(1,4,5)P3 antiserum)
# protocol_notes: Competitive ELISA: immobilized Ins(1,4,5)P3 vs competitor, IP3-C6NC5-BSA induced antiserum
# Assay type: binding, New Zealand White rabbit
# experimental_parameters: IP3-C6-NC5-BSA induced antibodies; competitive ELISA; read-out: [Competitor] (M) at half maximal absorbance (B/Bo = 0.5) or IC50
measure_name: IC50 (M)

{"molecule": "O=P(O)(O)O[C@@H]1[C@H](O)[C@H](O)[C@@H](OP(=O)(O)O)[C@H](OP(=O)(O)O)[C@H]1O [Ins(1,4,5)P3, D-myo-inositol 1,4,5-trisphosphate]", "IC50 [M]": "8.9e-08"}
{"molecule": "O=P(O)(O)O[C@H]1[C@H](OP(=O)(O)O)[C@@H](OP(=O)(O)O)[C@@H](O)[C@@H](O)[C@@H]1OP(=O)(O)O [Ins(3,4,5,6)P4]", "IC50 [M]": "4.5e-06"}

[I] O=P(O)(O)O[C@H]1[C@H](O)[C@@H](O)[C@H](OP(=O)(O)O)[C@@H](OP(=O)(O)O)[C@H]1O [Ins(1,3,4)P3]
[II] O=P(O)(O)O[C@H]1[C@H](OP(=O)(O)O)[C@@H](OP(=O)(O)O)[C@H](OP(=O)(O)O)[C@@H](OP(=O)(O)O)[C@H]1OP(=O)(O)O [IP6, Phytic acid]
Asked: Which of these two has the smaller recorded IC50: I or II ? # reply format: chosen label
Given back: I

---

# Tested on: affinity-purified Ins(1,4,5)P3-specific antibodies
# protocol_notes: Inhibition of binding of affinity-purified antibodies to immobilized Ins(1,4,5)P3 by ions
# Design: species or system New Zealand White rabbit
# experimental_parameters: concentration not stated with the result, or 'high concentrations'
measure_name: inhibition of / interference with antibody binding to immobilized Ins(1,4,5)P3

{"entry_smiles": "Nc1ncnc2c1ncn2[C@@H]1O[C@H](COP(=O)(O)OP(=O)(O)OP(=O)(O)O)[C@@H](O)[C@H]1O", "value_reported": "could be disrupted"}
{"entry_smiles": "O=P(O)(O)O", "value_reported": "could be disrupted"}
{"entry_smiles": "O=S(=O)(O)O", "value_reported": "could be disrupted"}

---

Each item that follows carries a reported pIC50.
# target: affinity-purified Ins(1,4,5)P3-specific antibodies
# protocol_notes: Inhibition of binding of affinity-purified antibodies to immobilized Ins(1,4,5)P3 by ions
# experimental_parameters: affinity-purified antibodies; preincubation 30 minutes, room temperature; read-out: IC50 for inhibition of antibody binding to immobilized Ins(1,4,5)P3
By convention, pIC50 is the negative base-10 log of a molar concentration.

{"molecule": "O=P(O)(O)O [HPO4^2 -]", "measure_name": "pIC50", "value_reported": 2.58}

Asked: # query: pIC50 of entry Nc1ncnc2c1ncn2[C@@H]1O[C@H](COP(=O)(O)OP(=O)(O)OP(=O)(O)O)[C@@H](O)[C@H]1O [ATP^4 -]
Given back: 3.68

Asked: # input molecule: O=S(=O)(O)O [SO4^2 -] ; wanted: its pIC50
Given back: 1.94

---

# System: IP3 -C6 -NC5 -BSA induced antibodies (anti-Ins(1,4,5)P3 antiserum)
# protocol_notes: Competitive ELISA: immobilized Ins(1,4,5)P3 vs competitor, IP3-C6NC5-BSA induced antiserum
# Assay type: binding, New Zealand White rabbit
# experimental_parameters: IP3-C6-NC5-BSA induced antibodies; competitive ELISA; read-out: [Competitor] (M) at half maximal absorbance (B/Bo = 0.5) or IC50
measure_name: IC50 (M)

[a] O=P(O)(O)O[C@H]1[C@H](OP(=O)(O)O)[C@@H](OP(=O)(O)O)[C@H](O)[C@@H](O)[C@H]1OP(=O)(O)O [Ins(1,2,5,6)P4]
[b] O=P(O)(O)O[C@@H]1[C@@H](O)[C@H](O)[C@H](O)[C@H](O)[C@H]1OP(=O)(O)O [Ins(4,5)P2]
[c] O=P(O)(O)O[C@H]1[C@H](O)[C@@H](OP(=O)(O)O)[C@H](OP(=O)(O)O)[C@@H](OP(=O)(O)O)[C@H]1O [Ins(1,3,4,5)P4]
[d] O=P(O)(O)OC1[C@H](O)[C@H](O)C(O)[C@H](O)[C@H]1O (stereo partly shown) [Ins(1)P1]
Asked: # rank above entries by IC50 (max first, min last) Write out the labels following the order that was asked for.
Given back: d, b, a, c
(d: 0.00042 M, b: 3.8e-05 M, a: 2.1e-05 M, c: 2e-07 M)
